# Tgt: HLA-DRB1*07:01 (Homo sapiens, UniProt P01903+P01911, A100R/A102G/A103Q/D57E/D86V/E43K/F76Y/K127E/L162R/M171V/P40G/Q125H/Q99D/R33Q/R42Y/R54Q/S133A/S66F/T210M/V115G/Y107V/Y59L/Y89S)
# Protocol details: Competitive inhibition HLA II binding assay
# Assay conditions: competition with radiolabeled probe peptide, purified HLA II, 0.3 nM–30 µM, 2-day incubation; mean of three or more independent assays
Ends that are not written are not given here.
Assay readout: IC50 (nM)
Value expressed in nM; do not type the unit.

Take a look at these entries with their results.
{"Primary sequence": "KEKFRDIRRFIP [RVC1582–1592]", "IC50 (nM)": 13000}
{"Primary sequence": "INLRTNNSSTIVVPYIN [RVC258–274]", "IC50 (nM)": 411}

Now for another entry.
stdin: Any idea what its IC50 is? The sequence is GLEPLDLNTSAGFPYV [RVC1791–1806]
stdout: 1200
